The molecules below have reported pIC50 for UniProtKB Q9UPP1.
Sequence (Q9UPP1 whole entry): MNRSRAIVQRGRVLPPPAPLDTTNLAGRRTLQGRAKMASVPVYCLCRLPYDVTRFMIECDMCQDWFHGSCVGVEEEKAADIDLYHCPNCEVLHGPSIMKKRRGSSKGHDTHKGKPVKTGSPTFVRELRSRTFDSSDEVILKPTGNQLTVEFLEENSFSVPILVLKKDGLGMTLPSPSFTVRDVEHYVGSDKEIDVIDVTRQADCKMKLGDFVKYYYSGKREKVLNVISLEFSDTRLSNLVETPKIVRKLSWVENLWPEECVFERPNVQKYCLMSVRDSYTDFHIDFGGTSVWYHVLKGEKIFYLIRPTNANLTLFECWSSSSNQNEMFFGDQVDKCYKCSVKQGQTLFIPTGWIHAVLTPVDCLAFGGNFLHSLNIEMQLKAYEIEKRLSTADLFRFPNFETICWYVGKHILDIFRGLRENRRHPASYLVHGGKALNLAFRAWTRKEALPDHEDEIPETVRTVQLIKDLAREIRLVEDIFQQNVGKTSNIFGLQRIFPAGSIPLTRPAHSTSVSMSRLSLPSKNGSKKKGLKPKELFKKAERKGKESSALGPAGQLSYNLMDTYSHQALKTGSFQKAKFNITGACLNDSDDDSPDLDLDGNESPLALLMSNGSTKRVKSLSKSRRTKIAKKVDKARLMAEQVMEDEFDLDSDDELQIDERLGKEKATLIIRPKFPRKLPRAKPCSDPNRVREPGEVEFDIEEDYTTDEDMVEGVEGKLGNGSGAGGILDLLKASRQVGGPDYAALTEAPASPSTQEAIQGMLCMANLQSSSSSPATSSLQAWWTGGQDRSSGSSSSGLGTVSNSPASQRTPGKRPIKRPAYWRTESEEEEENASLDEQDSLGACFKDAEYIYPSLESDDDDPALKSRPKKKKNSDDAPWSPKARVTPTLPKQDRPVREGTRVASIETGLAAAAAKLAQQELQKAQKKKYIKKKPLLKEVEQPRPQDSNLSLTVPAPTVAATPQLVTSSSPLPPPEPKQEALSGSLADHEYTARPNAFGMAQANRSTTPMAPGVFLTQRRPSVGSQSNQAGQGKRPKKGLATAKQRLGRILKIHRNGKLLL
pIC50: −log10 of the molar value.
metric name: pIC50

[[record]]
molecule = "CCNC(=O)C1CCN(Cc2cc(C(=O)O)ccn2)C1 (stereo not drawn)"
result = "5.60 to 6.60"

[[record]]
molecule = "CC(N[C@@H](C)C(=O)NCc1ccccc1CO)c1cc(C(=O)O)ccn1 (stereo partly drawn)"
result = "5.60 to 6.60"

[[record]]
molecule = "CC(N[C@@H](C)C(=O)NCc1ccccc1)c1cc(C(=O)O)ccn1 (stereo partly drawn)"
result = "5.60 to 6.60"

[[record]]
molecule = "O=C(O)c1ccnc(CN2CCCCn3ccnc3C2)c1"
result = "5.60 to 6.60"

[[record]]
molecule = "O=C(O)c1ccnc(CN2CCC[C@H]2C(=O)N2CCCCC2)c1"
result = "< 5.60"

[[record]]
molecule = "C[C@H](c1ccccc1)N1CCC[C@@H](CNCc2cc(C(=O)O)ccn2)C1=O"
result = "5.60 to 6.60"

